Hello, the source for this data is ChEMBL document CHEMBL3988442, in case you need it.

Percent Effect listing for selected compounds.
- target under test: AMP-activated protein kinase, AMPK (Homo sapiens) (UniProt P54646+O43741+P54619+Q9UGJ0+Q9Y478+Q13131+Q9UGI9)
- protocol summary: AMP-dependent Kinase enzyme assay. An in vitro enzyme assay that detects ADP turnover that is directly proportional to AMPK activity. This uses naive AMPK that is activated during the assay with MK-8722
- Assay type: functional
- Design: scale not given: direction of the effect not stated beside the values
- protocol conditions: 30 µM
recorded metric: Percent Effect (%)

> print(dat)
                                    compound  unit.label  quantitative.readout
 1  Cc1nc(CNC(=O)Nc2cc(F)ccc2N2CCN(C)CC2)no1           %                  13.3
 2  Cc1ncn(CCNC(=O)Nc2ccc(OC(F)(F)F)cc2)c(=O)c1C           %                  2.14
 3  CCc1cc(=O)[nH]c(-c2ccc(NC(C)CN3CCOCC3)nc2)n1 (stereo unspecified)           %                 -2.92
 4  CCC[C@H]1CN(Cc2cc(C#N)n(C)c2C)C[C@@H]1NS(=O)(=O)CC           %                  -157
 5        Cc1noc(CNc2cc3c(cc2Cl)NC(=O)CO3)n1           %                  1.17
 6  O=C(Cn1nc2ccccc2n1)N1CCCC(O)(CO)C1 (stereo unspecified)           %                 -6.31
 7  CCNC(=O)[C@@H]1C[C@H](N)CN1c1cc(C(F)(F)F)nc(N2CCCC2)n1           %                  2.77
 8     CC(C)N(Cc1ccccn1)C(=O)CCC(=O)c1ccccc1           %                 -4.49
 9  Cc1cc(C)n(C2CN(Cc3nc4cc(Cl)ccc4n3C)C2)n1           %                  3.42
10            Cc1ccc(C)c(CN(CC(N)=O)C(C)C)c1           %                  -8.2
11  Cc1nc(CNC(=O)c2cc(COc3ccccc3)[nH]n2)n[nH]1           %                  7.31

---

Here the recorded Percent Effect is given for each entry.
- target under test: Tyrosyl-tRNA synthetase, putative (Trypanosoma cruzi (strain CL Brener)) (UniProt Q4DSP6)
- Sequence (whole entry): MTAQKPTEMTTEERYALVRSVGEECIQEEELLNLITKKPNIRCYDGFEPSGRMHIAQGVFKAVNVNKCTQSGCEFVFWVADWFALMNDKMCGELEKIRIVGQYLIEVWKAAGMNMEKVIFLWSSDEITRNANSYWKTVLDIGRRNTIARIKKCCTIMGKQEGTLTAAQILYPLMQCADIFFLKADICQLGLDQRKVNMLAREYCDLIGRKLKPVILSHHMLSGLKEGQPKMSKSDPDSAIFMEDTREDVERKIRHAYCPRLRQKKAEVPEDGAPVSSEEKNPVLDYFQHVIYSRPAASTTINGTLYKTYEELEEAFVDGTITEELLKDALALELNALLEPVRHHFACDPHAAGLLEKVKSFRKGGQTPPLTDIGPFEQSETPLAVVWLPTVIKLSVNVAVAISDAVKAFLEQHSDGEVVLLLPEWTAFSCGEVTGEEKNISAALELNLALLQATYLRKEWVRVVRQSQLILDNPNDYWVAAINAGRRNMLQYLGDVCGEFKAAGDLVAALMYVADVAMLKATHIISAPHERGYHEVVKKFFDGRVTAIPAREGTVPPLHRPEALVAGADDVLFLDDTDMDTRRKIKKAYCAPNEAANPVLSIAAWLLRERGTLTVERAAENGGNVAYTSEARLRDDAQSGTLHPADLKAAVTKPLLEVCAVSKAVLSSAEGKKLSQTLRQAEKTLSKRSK
- protocol summary: Trypanosoma cruzi tyrosyl tRNA synthetase (TcYRS) _High Tyrosine SOP; also: in the data most compounds retested in dose-response had high values
- Format: functional
- Design: scale not given: direction of the effect not stated beside the values
- protocol conditions: 30 µM
recorded metric: Percent Effect (%)

> print(dat)
                                    molecule  recorded.metric  quantitative.readout
 1    COc1cccc(OC)c1C(=O)N1CCN(c2ccccc2F)CC1   Percent Effect                     0
 2  CN(C)C(=O)CCC(=O)NCc1cccnc1-n1cnc2ccccc21   Percent Effect                   1.6
 3      CCc1sc(-c2nnc(CNCCn3cc(C)cn3)o2)cc1C   Percent Effect                   4.9
 4  Cc1cc(C)n(C2CCCN(C(=O)c3c(C)c(C)n[nH]c3=O)C2)n1 (centres undefined)   Percent Effect                  1.58
 5  c1ccc(-c2nc(CN3CCc4c(ncn4C4CC4)C3)cs2)cc1   Percent Effect                  12.8
 6  CCc1ccc(CN2CCC3(CC2)NC(=O)CC3c2ccncc2)o1 (centres undefined)   Percent Effect                 0.526
 7  CCOC1COC2(CCN(Cc3cccc(F)c3)CC2)C1 (centres undefined)   Percent Effect                   2.9
 8  O=C(C1CCOC1)N1CCc2ncc(CNc3ccccn3)n2CC1 (centres undefined)   Percent Effect                  3.68
 9     Cn1cc(CN2CCCN(C(=O)c3cc[nH]n3)CC2)cn1   Percent Effect                 0.478
10  Cc1ncc(-c2ccnc(N3CCCCCC3)n2)c(-c2cccnc2)n1   Percent Effect                  1.58
11  CCc1noc(C(C)N2CCC(N3CCCC3)CC2)n1 (centres undefined)   Percent Effect                  5.79
12  CCc1nc(CN(C)C2CCN(CCNS(=O)(=O)CC)C2)no1 (centres undefined)   Percent Effect                 -1.58
13  Cc1cc(OCC(=O)N2CCCC(c3noc(C)n3)C2)no1 (centres undefined)   Percent Effect                -0.526
14  Clc1ccccc1-c1nc(CNC2CCc3ncnn3C2)cs1 (centres undefined)   Percent Effect                  2.39
15  Cc1cc2c(=O)n3c(nc2s1)CCN(Cc1cnc(C(C)C)nc1)CC3   Percent Effect                     0
16  Cc1cc(C)n(CCC(=O)N2CCCC(n3cncn3)C2)n1 (centres undefined)   Percent Effect                  5.79
17  Cc1cc(NC(=O)N(CC2CCOC2)C2CC2)no1 (centres undefined)   Percent Effect                  5.79
18  COCCCN1CC2(CCCCN2C(=O)c2ccsc2)CC1=O (centres undefined)   Percent Effect                     0
19  Cc1nc(O)c2nnn(C[C@H]3CCCN3C(=O)C(C)(C)C)c2n1   Percent Effect                  5.29
20  O=C(c1cnco1)N1CCCC(Cc2nccs2)C1 (centres undefined)   Percent Effect                  7.41
21  CC(C)OCCN(C)C(C)c1cccc(S(N)(=O)=O)c1 (centres undefined)   Percent Effect                 -1.96
22  CC(C)NC(=O)C1CN(C(=O)N2CCCC2)CC12CCOCC2 (centres undefined)   Percent Effect                  2.63
23  CN(C)S(=O)(=O)N1CC[C@]2(C[C@H](Oc3ncccc3F)CO2)C1   Percent Effect                  4.74
24        CC(C)CN1CCC2(CCN(Cc3ccsc3)CC2)C1=O   Percent Effect                   8.7

---

The following compounds are shown together with reported Percent Effect values.
- target under test: AMP-activated protein kinase, AMPK (Homo sapiens) (UniProt P54646+O43741+P54619+Q9UGJ0+Q9Y478+Q13131+Q9UGI9)
- protocol summary: AMP-dependent Kinase enzyme assay. An in vitro enzyme assay that detects ADP turnover that is directly proportional to AMPK activity. This uses naive AMPK that is activated during the assay with MK-8722
- Format: functional
- Parameters: scale not given: direction of the effect not stated beside the values
- protocol conditions: 30 µM
recorded metric: Percent Effect (%)

> print(dat)
                                   compound  quantitative.readout
1  COc1ccc(CCCN(C)C(=O)c2cc(C(C)=O)c[nH]2)cc1OC                 -2.16
2         CN(CCCc1cnn(C)c1)Cc1cc2n(n1)CCNC2                 -4.86
3     O=C(c1cnco1)N1CCC(Cc2cnc3ccccc3c2)CC1                  18.4
4   COc1cccc(CCn2ccnc2-c2cn(C3CCNCC3)nn2)c1                 -20.9
5                 O=C(CCOc1ccccc1F)N1CCOCC1                 -12.5
6  CC(C)n1cc(CN(Cc2ccc(F)cc2)CC2CCCO2)cn1 (stereo unspecified)                  5.24
